Consider the following compounds; for each one, report its inhibition at 50 µM.
systemName: recombinant caspase 3 (Homo sapiens)
Construct: His tag (C); made in house; host or cells: E. coli
measurementNotes: Caspase 3 Inhibition Assay (Ac-DEVD-AFC fluorogenic substrate cleavage)
Type: biochemical
runParameters: @ 50 μM compound; recombinant caspase 3, Ac-DEVD-AFC 25 μM, pH 7.2, 23° C.; read-out: percent inhibition at the highest compound concentration
Numbers only; they are read as %.

Lab note: CN1CCN(C(=O)c2ccc3c(c2)C(=O)C2=NCC(C)(C)CN23)CC1 [Example 81] gave inhibition at 50 µM of 29

Looking up CC1(C)CN=C2C(=O)c3cc(S(=O)(=O)N4CCC[C@H]4COc4cccnc4Br)ccc3N2C1 [Example 35] , I found its inhibition at 50 µM recorded as 26

Looking up O=C1C2=NCCCN2c2ccc(F)cc21 [Example 18] , I see its inhibition at 50 µM listed as 26

inhibition at 50 µM reported for this compound O=C1C2=NCCCN2c2ccc(O)cc21 [Example 19] : 2

For record CC1(C)CN=C2C(=O)c3cc(C(=O)N4CCCC4)ccc3N2C1 [Example 78] the listed inhibition at 50 µM is 37

Entry O=C1C2=NCCCN2c2ccc(Br)cc21 [Example 9] ; inhibition at 50 µM = 72

* * *

systemName: recombinant caspase 3 (Homo sapiens)
Construct: His tag (C)
measurementNotes: Caspase 3 Inhibition Assay (Ac-DEVD-AFC fluorogenic substrate cleavage)
runParameters: recombinant caspase 3 0.25 nM, Ac-DEVD-AFC 25 μM, pH 7.2, 23° C.
Method: Caspase 3 was expressed intracellularly in E. coli with a c-terminal His tag. Fermentation was performed at 25° C. in a B. Braun Biotech Biostat C 10 liter bioreactor vessel. The culture was collected in IL bottles and centrifuged in Komspin KA-7.1000 rotors at approximately 8000 RCF (Relative Centrifugal Force). The cell pellets were re-suspended in 20 mM Tris pH 8.0, 500 mM NaCl, and 5 mM imidazole. […]
reportedProperty: IC50
Give me the value, and tack the unit on after it.

So for CC1(C)CN=C2C(=O)c3cc(S(=O)(=O)N4CCC[C@H]4COc4cccc(C(F)(F)F)c4)ccc3N2C1 [Example 31] , the logged IC50 turned out to be 0.045 µM

Entry CC1(C)CN=C2C(=O)c3cc(S(=O)(=O)N4CCc5ccccc54)ccc3N2C1 [Example 32] ; IC50 = 0.016 µM

Form: molecule = CC1CCN=C2C(=O)c3cc(Br)ccc3N21 (centres unmarked) [Example 13] ; IC50 = 50 µM

Quick note, IC50 for COC[C@@H]1CCCN1S(=O)(=O)c1ccc2c(c1)C(=O)C1=NCCCN12 [Example 1] landed at 0.027 µM

Record COC[C@@H]1CCCN1S(=O)(=O)c1cc2c(cc1Cl)N1CCCN=C1C2=O [Example 5] , field IC50: 0.189 µM

According to the records, this molecule CC1(C)CN=C2C(=O)c3cc(S(=O)(=O)N4CCC[C@H]4CO)ccc3N2C1 [Example 8] displays IC50 of 0.025 µM

# IC50 (molecule: Cc1ccc(OC[C@@H]2CCCN2S(=O)(=O)c2ccc3c(c2)C(=O)C2=NCC(C)(C)CN23)c(I)n1 [Example 46] ) is 0.017 µM

Note to self: IC50 recorded for CC1(C)CN=C2C(=O)c3cc(S(=O)(=O)N4CCC[C@H]4COc4ccc(C(F)(F)F)cn4)ccc3N2C1 [Example 42] was 0.014 µM

Notebook: Cc1ccc(OC[C@@H]2CCCN2S(=O)(=O)c2ccc3c(c2)C(=O)C2=NCC(C)(C)CN23)c(Cl)c1 [Example 26] , IC50 read as 0.098 µM

Sample CC1(C)CN=C2C(=O)c3cc(Cl)ccc3N2C1 [Example 14] ; IC50 observed: 0.874 µM

response.value for CC1(C)CN=C2C(=O)c3cc(S(=O)(=O)N4CCC[C@H]4COc4cccc(Cl)n4)ccc3N2C1 [Example 40] (field: IC50) = 0.005 µM

* * *

Give melting point for every item shown.

Briefly, melting point measured for Cc1ccc2c(c1)C(=O)C1=NCCCN12 (hydrate or solvate) [Example 10] : 163 to 164 °C

Note to self: melting point recorded for COC[C@@H]1CCCN1S(=O)(=O)c1ccc2c(c1)C(=O)C1=NCC(C)(C)CN12 was 163 to 165 °C

get_value(item= CC1(C)CN=C2C(=O)c3cc(S(=O)(=O)N4CCc5ccccc54)ccc3N2C1 [Example 32] , readout=melting point) returns 169.8 to 170.8 °C

Noted for CC1(C)CN=C2C(=O)c3cc(C#N)ccc3N2C1 (hydrate or solvate) [Example 20] : its melting point reads 178 to 184 °C

* * *

systemName: recombinant caspase 3 (Homo sapiens, UniProt P42574)
Construct: His tag (C)
Sequence (P42574 29-175 limits assumed, species assumed): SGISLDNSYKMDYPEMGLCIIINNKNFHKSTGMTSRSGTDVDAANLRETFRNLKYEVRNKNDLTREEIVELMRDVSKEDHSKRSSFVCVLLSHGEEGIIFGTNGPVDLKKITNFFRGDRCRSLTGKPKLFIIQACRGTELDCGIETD
Sequence (P42574 176-277 limits assumed, species assumed): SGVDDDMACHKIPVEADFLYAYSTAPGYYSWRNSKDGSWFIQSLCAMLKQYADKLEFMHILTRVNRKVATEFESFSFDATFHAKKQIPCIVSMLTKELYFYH
measurementNotes: Caspase 3 Inhibition Assay (Ac-DEVD-AFC fluorogenic substrate cleavage)
runParameters: recombinant caspase 3 0.25 nM, Ac-DEVD-AFC 25 μM, pH 7.2, 23° C.
Classify: class 1 when IC50 is strictly less than 0.3 µM; class 0 when IC50 is not.

Below 0.3 µM on IC50? Entry CC1(C)CN=C2C(=O)c3cc(NS(=O)(=O)c4ccc(Cl)c(Cl)c4)ccc3N2C1 [Example 53] class 1

Item CC1(C)CN=C2C(=O)c3cc(C(=O)NC4CCCC4)ccc3N2C1 [Example 77] : IC50 beneath 0.3 µM, strictly? class 0

# strict comparison: is reported IC50 < 0.3 µM? input = O=C1C2=NCC3(CCCC3)CN2c2ccc(S(=O)(=O)N3CCC[C@H]3CN3CCOCC3)cc21 [Example 83] class 1

# strict comparison: is reported IC50 < 0.3 µM? input = Cc1ccc(OC[C@@H]2CCCN2S(=O)(=O)c2ccc3c(c2)C(=O)C2=NCC(C)(C)CN23)cc1 [Example 24] class 1

Below 0.3 µM on IC50? Entry O=C1C2=NCCCN2c2cc(Cl)c([N+](=O)[O-])cc21 [Example 15] class 0

is_below(IC50, 0.3 µM) for CC(=O)c1ccc(OC[C@@H]2CCCN2S(=O)(=O)c2ccc3c(c2)C(=O)C2=NCC(C)(C)CN23)c(C)c1 [Example 27] ? class 1

I wonder whether CC1(C)CN=C2C(=O)c3cc(NS(=O)(=O)c4ccc(F)c(Cl)c4)ccc3N2C1 [Example 52] has IC50 below 0.3 µM. Can you tell? class 1

# TODO verify IC50 < 0.3 µM strictly for this compound: CC1(C)CN=C2C(=O)c3cc(S(=O)(=O)N4c5ccccc5C[C@H]4COc4ccccc4)ccc3N2C1 [Example 34] class 0
